In this section, each of the binders is paired with its reported optical density.
biological target: T1, biotinylated goat anti-human kappa light chain; experiment: ELISA, positive control; also: test concentration or dose not given here
T1 construct: positive control of the ELISA
Quick reminder: number only, in OD, skip the unit.

{"Binder": "365_C06 (antibody, V domains shown, Group I) VH: EVQLLESGGGLVQPGGSLRLSCAASGFTFSDYGMHWVRQAPGKGLEWVSGINYNGGYTSYADSVKGRFTISRDNSKNTLYLQMNSLRAEDTAVYYCARAANWHDTALDYWGQGTLVTVSS VL: DIQMTQSPSSLSASVGDRVTITCRASQSISTYVNWYQQKPGKAPKLLIYAVTSLASGVPSRFSGSGSGTDFTLTISSLQPEDFATYYCQQSYDNPLTFGGGTKVEIK", "Unit Abbrev": "OD", "optical density": 3.45}

Q. Can you look up the measured optical density of 365_D04 (antibody, V domains shown, Group I) VH: EVQLLESGGGLVQPGGSLRLSCAASGFTFSDYGMHWVRQAPGKGLEWVAGINYNGGYKSYADSVKGRFTISRDNSKNTLYLQMNSLRAEDTAVYYCARAANWHDTALDYWGQGTLVTVSS VL: DIQMTQSPSSLSASVGDRVTITCRASQSISSYLNWYQQKPGKAPKLVIYAVTSRASGVPSRFSGSGSGTDFTLTISSLQPEDFATYYCQQSYDLPLTFGGGTKVEIK for me?
A. 3.52

Q. Can you look up the measured optical density of 371_G07 (antibody, V domains shown, Group II) VH: EVQLLESGGGLVQPGGSLRLSCAASGFTFSDYGMHWVRQAPGKGLEWVAGINYNGGYTSYADSVKGRFTISRDNSKNTLYLQMNSLRAEDTAVYYCARAATWHDTHLDYWGQGTLVTVSS VL: DIQMTQSPSSLSASVGDRVTITCRASQSIVSYVNWYQQKPGKAPKLVIYAATSRASGVPSRFSGSGSGTDFTLTISSLQPEDFATYYCQQSYSLPLTFGGGTKVEIK for me?
A. 3.41
